biological target: TbrCatL (Trypanosoma brucei rhodesiense, UniProt Q95PM0); construct: Conor Caffrey (University of California San Diego); assay: TbrCatL enzymatic inhibition assay (cleavage of fluorogenic substrate Z-FR-AMC); format: biochemical; settings: 10’ (pre-incubation time); Pathogen Box screening results;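 note: at 5 µM compound concentration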
Sequence (Q95PM0 entry or part of it): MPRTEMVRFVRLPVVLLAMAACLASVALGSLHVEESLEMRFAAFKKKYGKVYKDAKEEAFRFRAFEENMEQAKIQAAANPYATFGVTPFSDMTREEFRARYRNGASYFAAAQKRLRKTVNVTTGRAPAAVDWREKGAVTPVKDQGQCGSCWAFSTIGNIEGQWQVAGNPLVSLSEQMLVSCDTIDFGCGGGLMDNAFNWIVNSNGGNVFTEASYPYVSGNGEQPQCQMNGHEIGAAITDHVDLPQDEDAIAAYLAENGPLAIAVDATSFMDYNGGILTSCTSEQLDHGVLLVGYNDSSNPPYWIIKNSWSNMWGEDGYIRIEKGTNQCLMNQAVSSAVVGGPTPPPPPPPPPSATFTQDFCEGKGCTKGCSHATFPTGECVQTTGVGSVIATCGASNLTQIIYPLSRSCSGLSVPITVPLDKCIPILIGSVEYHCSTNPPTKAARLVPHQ
# TbrCatL Inhibition 10’ per record follows

compound	system	TbrCatL Inhibition 10’, %
CC(C)(C)C(=O)N(CCCCCCN1C[C@H](O)[C@@H](O)[C@H](O)[C@H]1CO)C1CCCCCC1	TbrCatL (Trypanosoma brucei rhodesiense, UniProt Q95PM0)	1.7
Cc1cc(Cl)ccc1NC(=O)CCc1ccc(S(=O)(=O)NCC(C)C)cc1	TbrCatL (Trypanosoma brucei rhodesiense, UniProt Q95PM0)	1.5
C[C@H](C(N)=O)N1CCCC[C@@H]1c1ccc(OCc2cccc(F)c2)cc1	TbrCatL (Trypanosoma brucei rhodesiense, UniProt Q95PM0)	-0.6
Cc1ccc2nc(C)c(-c3ccn(Cc4ccccc4)n3)n2c1	TbrCatL (Trypanosoma brucei rhodesiense, UniProt Q95PM0)	-9
CC(=O)OC[C@H]1O[C@@H]([S-])[C@H](OC(C)=O)[C@@H](OC(C)=O)[C@@H]1OC(C)=O.CC[PH+](CC)CC.[Au]	TbrCatL (Trypanosoma brucei rhodesiense, UniProt Q95PM0)	-63
O=[N+]([O-])c1cn2c(n1)OC[C@@H](OCc1ccc(OC(F)(F)F)cc1)C2	TbrCatL (Trypanosoma brucei rhodesiense, UniProt Q95PM0)	4
NCCC(O)C(=O)N[C@@H]1C[C@H](N)[C@@H](OC2O[C@H](CN)[C@@H](O)[C@H](O)[C@H]2O)[C@H](O)C1OC1O[C@H](CO)[C@@H](O)[C@H](N)[C@H]1O (some centres unmarked)	TbrCatL (Trypanosoma brucei rhodesiense, UniProt Q95PM0)	-6
Cc1cc(=O)[nH]c(-n2nc(C)cc2C)n1	TbrCatL (Trypanosoma brucei rhodesiense, UniProt Q95PM0)	-7

----------
# Cruzain Inhibition 0’ per record follows
molecular target: UniProt P25779; experiment: biochemical; conditions: 0’ (pre-incubation time); Pathogen Box screening results

smiles input	system	Cruzain Inhibition 0’ [%]
Cc1cc(=O)[nH]c(-n2nc(C)cc2C)n1	UniProt P25779	-12
CCCCCCCCCCCCCCCCOP(=O)([O-])OCC[N+](C)(C)C	UniProt P25779	-0.1
C[C@H](C(N)=O)N1CCCC[C@@H]1c1ccc(OCc2cccc(F)c2)cc1	UniProt P25779	4.6
Cc1cc(Cl)ccc1NC(=O)CCc1ccc(S(=O)(=O)NCC(C)C)cc1	UniProt P25779	-2.2
Cc1ccc2nc(C)c(-c3ccn(Cc4ccccc4)n3)n2c1	UniProt P25779	-1.4
CC(C)(C)c1cnc(NC(=O)c2ccccc2O)s1	UniProt P25779	-17

----------
# IC50 per record follows
target: cruzain (Trypanosoma cruzi); experiment: biochemical; conditions: IC50 (µM ± SEM %) Cruzain 10′ inc, 10′ pre-incubation
parameter: IC50 (µM)

smiles input	system	unit text	value measured
COc1cc(C2=NCCN2)cc2cc(-c3ccc(C4=NCCN4)cc3)oc12	cruzain (Trypanosoma cruzi)	µM	2.35
N=C(N)Nc1ccc(-c2ccc(-c3ccc(NC(=N)N)cc3Cl)o2)c(Cl)c1	cruzain (Trypanosoma cruzi)	µM	0.53
Cn1ccnc1CNCCS(=O)(=O)c1cccc(Nc2ccc(-c3cccc(F)c3)cn2)c1	cruzain (Trypanosoma cruzi)	µM	25
CN1CCN(S(=O)(=O)c2ccc(-c3ccc4c(Nc5ccc6nn[nH]c6c5)ccnc4c3)cc2)CC1	cruzain (Trypanosoma cruzi)	µM	10
COc1ccc(C2=NN(C3CCCCCC3)C(=O)C2(C)C)cc1OCCCCOc1ccc(-c2nn[nH]n2)cc1	cruzain (Trypanosoma cruzi)	µM	13
CN1CCN(CCCOc2ncc(Nc3ncc(-c4ccc(C(F)(F)F)c(F)c4)nc3C(N)=O)cn2)CC1	cruzain (Trypanosoma cruzi)	µM	2.6

----------
biological target: cruzain (Trypanosoma cruzi); assay: biochemical; conditions: 0’ (no pre-incubation); sheet Screening results;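 for Cruzain Inhibition 0’: at 5 µM compound concentration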
// assign YES if Cruzain Inhibition 0’ falls strictly below 1%, else NO (ties count as NO)

molecule	assigned class
O=C(C1CCCCC1)N1CC(=O)N2CCc3ccccc3[C@@H]2C1	NO
O=C1Nc2ccc(Br)cc2C12NCCc1c2[nH]c2ccccc12 (centres unmarked)	NO
CS(=O)(=O)c1ccccc1C(=O)N(Cc1ccccc1)c1ccccc1	NO
CC(=O)Nc1ccc(NC(=O)c2cc(-c3cc(Cl)ccc3O)n[nH]2)cc1	YES
C[C@H]1COC2(CCN(c3nc(=O)c4cc(C(F)(F)F)cc([N+](=O)[O-])c4s3)CC2)O1	NO

----------
target: cruzain (Trypanosoma cruzi); assay: biochemical; details: 10’ (pre-incubation time); sheet "Screening results"

compound	Cruzain 10’ Inhibition, %
Cc1cc(C)c2cc(C(=O)NC3CCCCCCC3)[nH]c2c1	4.7
COc1ccc(-c2nnc3ccc(-c4cccc(C(C)C)c4)cn23)cc1OC	-10
O=C(Nc1ccc(N2CCNCC2)cc1)c1ccn2ncc(-c3cccc(Cl)c3)c2n1	18
COC(=O)c1cccc2oc(-c3cccc(OC)c3NC(=O)c3cc(-c4ccccc4)on3)nc12	5.3
CN1CCCN(C(c2ccccc2)c2ccc(Cl)cc2)CC1 (centres unmarked)	6.6
COc1ccc2nc(C)cc(OCC(=O)NCc3ccccc3)c2c1	-1.1
COc1ccc(-c2cncc3ccc(C(=O)NCCCn4ccnc4)nc23)cc1	-17
NS(=O)(=O)c1cccc(-c2ccc3ncc(N4CCOCC4)nc3c2)c1	28
COc1ccc(Cn2cnc3c(-c4ccco4)nc(Cl)nc32)cc1	7
Nc1cccnc1Nc1ccc(Cl)cc1	13
CNC(=O)C1Cc2c([nH]c3cc(Cl)ccc23)C2(CCN(CCc3ccccc3)CC2)N1 (centres unmarked)	-0.7
FC(F)(F)c1cccc(-c2nc3c(NCc4ccncc4)nccc3[nH]2)c1	-2.4
COc1cc(-c2cc(-c3ccc(S(C)(=O)=O)cc3)cnc2N)ccc1O	4
CCc1nc2ccc(C(=O)NCc3ccc4c(c3)OCO4)cn2c1N(C)Cc1cccs1	-3
CNC(=O)CNc1nc(-c2ccccn2)nc2scc(-c3ccccc3)c12	28
COc1ccc(C2(C(=O)Nc3ccc(Br)cc3)CCCC2)cc1	4
CCC(Sc1nc2ccccc2o1)C(=O)Nc1nnc(C)s1 (centres unmarked)	4
COc1ccc(N(CCc2cccc(C)n2)C(=O)C2CCCCC2)cc1	-2.2
NC(=O)c1cc(-c2ccsc2)ccc1OCCOc1ccccc1	4
CCS(=O)(=O)N(Cc1ccco1)Cc1cc2ccc(C)cc2[nH]c1=O	28
COc1cc(Br)cc2cc(C(=O)Nc3cccc(C(F)(F)F)c3)c(=O)oc12	-0.7
O=C(CN1CCOCC1)Nc1ccc2ncnc(Nc3ccc(OCc4cccc(F)c4)c(Cl)c3)c2c1	2.4
CC(C)(C)OC(=O)N1CCN(c2cc(-c3ccc(Oc4ccccc4)cc3)n[nH]2)CC1	-3.4
Clc1ccc(-n2cc(COc3ccnc4ccccc34)nn2)cc1	14
Nc1ncc(-c2cn[nH]c2)cc1-c1nc2cc(Cl)cnc2[nH]1	8
O=C(NCCc1ccn(-c2ccccc2)n1)C1CCCCC1	4
CCc1ccc(S(=O)(=O)Nc2cc(CN3CCN(CCC(C)C)CC3)ccc2C)cc1	3
Nc1nc2cc(-c3cncc(Oc4ccc(F)cc4)c3)ccc2[nH]1	19
OCCc1ccc(Nc2nccc(-c3nnc4ccccn34)n2)cc1	14
CCC(NC(=O)c1ccccc1NC(=O)c1ccc(C)cc1)C(=O)OC (centres unmarked)	1.2
O=C(Nc1ccccc1-c1nc2c(C(=O)O)cccc2o1)c1ccccc1	9
CC(C)n1nc(-c2cc3c(Cl)cccc3[nH]2)c2c(N)ncnc21	-1.4
Cc1nc(-c2ccccn2)nc(N2CCC(Cc3ccccc3)C2)c1Cl (centres unmarked)	12
CCCCN(CCCC)c1c(C#N)cc(S(=O)(=O)Nc2ccccc2)cc1C#N	1.8
COc1cccc(-c2nc3c(N4CCCC4)cccc3n2CC2CCCN2)n1 (centres unmarked)	11
Nc1ncnc2c1c(-c1cnc3ccccc3c1)nn2CC1CCNCC1	5.5
O=C1COCc2ccc(Br)cc2N1Cc1ccc(C(F)(F)F)cc1	0.2
Cc1ccc(S(=O)(=O)n2cc(-c3ccnc(N)c3)c3cc(Br)cnc32)cc1	15

----------
# inhibition at 100 µM per record follows
Biological target: cruzain (Trypanosoma cruzi, UniProt P25779)
Sequence (P25779 123-337 limits assumed): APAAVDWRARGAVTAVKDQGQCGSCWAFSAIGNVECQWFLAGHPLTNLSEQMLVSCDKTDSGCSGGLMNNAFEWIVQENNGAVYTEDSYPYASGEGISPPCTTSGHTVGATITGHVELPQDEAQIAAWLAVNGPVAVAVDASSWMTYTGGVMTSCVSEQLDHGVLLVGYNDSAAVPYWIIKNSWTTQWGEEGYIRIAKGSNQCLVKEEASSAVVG
Assay: biochemical
Conditions: read-out: Inhibition at 100 µM (Mean ± SEM %) Cruzain 0′, 100 µM, no pre-incubation, solid samples
Protocol: Allison Doak and Prof. Brian Shoichet (University of California San Francisco, San Francisco, CA, USA) and Prof. Conor Caffrey (University of California San Diego, San Diego, CA, USA) generously provided recombinant cruzain and TbrCatL, respectively. In vitro activity of proteases cruzain and TbrCatL was assayed as previously described. Briefly, enzyme activity was measured by monitoring the cleavage of the fluorogenic substrate Z-Phe-Arg-amidomethylcoumarin (Z-FR-AMC) at 25 °C. […]

smiles input	system	inhibition at 100 µM (%)
CN1CCN(S(=O)(=O)c2ccc(-c3ccc4c(Nc5ccc6nn[nH]c6c5)ccnc4c3)cc2)CC1	cruzain (Trypanosoma cruzi, UniProt P25779)	72
COc1cc(C2=NCCN2)cc2cc(-c3ccc(C4=NCCN4)cc3)oc12	cruzain (Trypanosoma cruzi, UniProt P25779)	100
CN1CCN(CCCOc2ncc(Nc3ncc(-c4ccc(C(F)(F)F)c(F)c4)nc3C(N)=O)cn2)CC1	cruzain (Trypanosoma cruzi, UniProt P25779)	100
Cn1ccnc1CNCCS(=O)(=O)c1cccc(Nc2ccc(-c3cccc(F)c3)cn2)c1	cruzain (Trypanosoma cruzi, UniProt P25779)	58
